The origin of these recorded values is ChEMBL document CHEMBL1201862.

test system: OVCAR-5; assay: NCI tumour cell line growth inhibition, 48 h
Active and inactive are the calls of the source. Cut-off read from the data, not from the text of the source: active = GI50 up to about 1.1 µM and inactive = higher. Where a SMILES comes first, the peptide text is derived from it. Bridges are numbered along the chain shown (N, C = ends). [ ]: non-standard residue; d: D form. The star is where a group is joined. ξ: configuration not given here. ξNMePhe(4-NMe2) = CNC(Cc1ccc(N(C)C)cc1)C(=O)O; Picolinoyl(3-OH) = O=C(c1ncccc1O)*; ξPip(4-oxo) = O=C1CCNC(C(=O)O)C1; Phg = N[CH](C(=O)O)c1ccccc1; Abu = CC[CH](N)C(=O)O
Write down one outcome, taken from true = active, false = inactive

{"compound": "CC1=C/C(O)CC(=O)Cc2nc(co2)C(=O)N2CCC=C2C(=O)OC(C(C)C)C(C)/C=C/C(=O)NC\\C=C\\1.CCC1NC(=O)C(NC(=O)c2ncccc2O)C(C)OC(=O)C(c2ccccc2)NC(=O)C2CC(=O)CCN2C(=O)C(Cc2ccc(N(C)C)cc2)N(C)C(=O)C2CCCN2C1=O (configuration not stated) ({Picolinoyl(3-OH)}-T[Abu]P[ξNMePhe(4-NMe2)][ξPip(4-oxo)][Phg]; ester 1-C; configuration not given here)", "tested_on": "OVCAR-5", "label_class": "false"}
{"compound": "CC[C@@]1(O)C(=O)OCc2c1cc1n(c2=O)Cc2cc3c(N)cccc3nc2-1", "tested_on": "OVCAR-5", "label_class": "true"}
{"compound": "CC1(C)OC2COC3([C@@H]4OC(C)(C)O[C@@H]4CO)OC(C)(C)OC3C2O1 (some centres not stated)", "tested_on": "OVCAR-5", "label_class": "false"}
{"compound": "O=c1oc2ccc3ccccc3c2cc1-c1nc2ccc([N+](=O)[O-])cc2o1", "tested_on": "OVCAR-5", "label_class": "false"}
{"compound": "COc1c2ccoc2nc2c(OC)c(OCC(O)C(C)(C)O)ccc12 (configuration not stated)", "tested_on": "OVCAR-5", "label_class": "false"}

stdin: Identify the outcome logged in this assay for the compound shown: COC(=O)C(Cc1ccc2c(c1)CCCC2)Cc1cc2c(cc1C(O)OC)CCC2 (configuration not stated)
stdout: false

stdin: Please let me know the test result on file for Cn1ncnc1CCc1ccccc1 .
stdout: false

###

test system: HT-29; experiment: NCI tumour cell line growth inhibition, 48 h
Calls of active or inactive are those of the source. No stated cut-off is given here; in the data, active = GI50 up to about 1.1 µM and inactive = higher.
quantity: GI50

The cases that follow already have their GI50 on record.
{"molecule": "CC1(C)C2CCC13C(=O)C1OC3(C2)C2C(=O)N(c3ccccc3)C(=O)C12 (stereo not drawn)", "tested_on": "HT-29", "GI50": "51.4 µM (inactive)"}
{"molecule": "Cc1ccc(NC(=O)c2cc3cc(/N=N/c4ccccc4C(=O)O)ccc3oc2=O)cc1", "tested_on": "HT-29", "GI50": "38.5 µM (inactive)"}

Next, consider the following molecule.
// GI50 (HT-29) for COC(=O)c1c/c(=N\NC(=O)CC(=O)Nc2ccccc2Cl)c2ccccc2o1 = > 100 µM (inactive)

###

test system: NCI-H460; assay: NCI tumour cell line growth inhibition, 48 h
Calls of active or inactive are those of the source. No stated cut-off is given here; in the data, active = GI50 up to about 1.1 µM and inactive = higher.
Bench note: report the call from active, inactive

{"molecule": "O=C(Nn1cc(F)c(=O)[nH]c1=O)C12CC3CC(CC(C3)C1)C2", "label_class": "inactive"}
{"molecule": "CC1=NN(c2ccccc2)C(=O)/C1=C1\\SC(c2ccccc2)(c2ccccc2)c2ccccc21", "label_class": "inactive"}
{"molecule": "NC(=O)CNC(=O)[C@@H]1C[C@@H](OCCC(=O)O)CN1C(=O)OCc1ccccc1", "label_class": "inactive"}
{"molecule": "O=C(O)c1cn2c3c(cc(N4CCN(CCO)CC4)cc3c1=O)SCC2", "label_class": "inactive"}
{"molecule": "O=S(=O)(/N=C(\\NO)Nc1ccc(Cl)cc1)C1CC=C(c2ccon2)S1 (configuration not stated)", "label_class": "inactive"}

With those in mind, consider the next molecule.
stdin: What is the recorded call for this molecule in the test? O=S(=O)(O)c1ccc(/N=N\c2ccc(/N=N\c3ccc(/C=C/c4ccc(/N=[N+](/[O-])c5ccc(/C=C/c6ccc(/N=N/c7ccc(/N=N\c8ccc(S(=O)(=O)O)cc8)cc7)cc6S(=O)(=O)O)c(S(=O)(=O)O)c5)cc4S(=O)(=O)O)c(S(=O)(=O)O)c3)cc2)cc1
stdout: inactive

###

tested on: IGROV-1; experiment: NCI tumour cell line growth inhibition, 48 h
Calls of active or inactive are those of the source. No stated cut-off is given here; in the data, active = GI50 up to about 1.1 µM and inactive = higher.
Field: GI50. Provide a value for each of the compounds that follow.

Worked examples, 5 compounds total:
{"compound": "Cc1cn2c(/C=C3/C(=O)Nc4ccccc43)c(-c3ccccc3)nc2s1", "test_result": "40.5 µM (inactive)"}
{"compound": "NCCCNCc1c2ccccc2c(CNCCCN)c2ccccc12", "test_result": "44.2 µM (inactive)"}
{"compound": "COC(=O)CC[C@]12C[C@]13CC[C@]1(C)C4C(C)C[C@]5(CC(C)C(=O)O5)OC4CC1(C)C3CCC2C(C)(C)O (stereo partly drawn)", "test_result": "65.6 µM (inactive)"}
{"compound": "O=C(Nc1ccc(Cl)cc1)C(=O)C(C(=O)c1ccccc1-c1ccccc1)C1OC(=O)c2ccccc21 (stereo not drawn)", "test_result": "29.1 µM (inactive)"}
{"compound": "COC(=O)[C@]12CCC(C)(C)C[C@H]1[C@H]1C(=O)C=C3[C@@]4(C)C=C(C#N)C(=O)C(C)(C)[C@@H]4CC[C@@]3(C)[C@]1(C)CC2", "test_result": "0.0405 µM (active)"}

List GI50 for every entry below, keeping the order given.
1. CC(=O)OC1COC(n2c(-c3ccc(Cl)cc3)cc(-c3ccccc3)c(C#N)c2=S)C(OC(C)=O)C1OC(C)=O (stereo not drawn)
2. CS(=O)(=O)N1CC(CI)c2ccc(O)cc21 (stereo not drawn)
3. CC1=NNC(=O)C1C(CC(=O)c1c[nH]c2ccccc12)C(=O)O (stereo not drawn)

stdout:
1. 18.2 µM (inactive)
2. 3.98 µM (inactive)
3. 15 µM (inactive)

###

system: OVCAR-3; test: NCI tumour cell line growth inhibition, 48 h
Calls of active or inactive are those of the source. Cut-off read from the data, not from the text of the source: active = GI50 up to about 1.1 µM and inactive = higher.
Please state which outcome applies, choosing from active, inactive

These recorded examples may help you get a feel for the data.
{"molecule": "Cc1ccc(S(=O)(=O)N/C(=N\\O)Nc2ccc(Cl)c(Cl)c2)cc1", "label_class": "inactive"}
{"molecule": "CC(=O)Nc1cccc(N2C(=O)/C(=C\\c3cccc(Oc4ccccc4)c3)SC2c2ccccc2)c1 (centres undefined)", "label_class": "inactive"}
{"molecule": "CN(C)C(=O)c1ccc([N+](=O)[O-])cc1", "label_class": "inactive"}

stdin: Recorded call for C/C=C(/CCC1NCCC2c3ccccc3NC12)[Si](C)(C)C (centres undefined) ?
stdout: inactive

stdin: Test call, this molecule: COc1ccc2c(c1)-c1c(c3cc(OC)ccc3n1CCN1CCOCC1)CC2
stdout: inactive

stdin: Kindly provide the recorded test outcome for the following molecule: CC(C)=NN/C(=N\c1ccc(Cl)cc1)NS(=O)(=O)c1cc(Cl)c(Oc2ccc([N+](=O)[O-])cc2Cl)c(Cl)c1
stdout: inactive

stdin: Given O=C(CC1C=Cc2ccccc2N1C(=O)c1ccccc1)c1ccccc1 (centres undefined) , state the outcome it received in this test.
stdout: inactive

stdin: Could you check what this test reported for O=C(NNC(=O)/C(=C/c1cccc([N+](=O)[O-])c1)NC(=O)c1ccccc1)Nc1ccc(Cl)cc1 ?
stdout: inactive

stdin: For COc1cc2cc(C(=O)N3CC(CCl)c4c3cc(N)c3ccccc43)[nH]c2cc1OCCN(C)C (centres undefined) , which call appears in the assay record?
stdout: active

###

test system: NCI-H522; assay: NCI tumour cell line growth inhibition, 48 h
Activity calls are given as the source filed them. Cut-off read from the data, not from the text of the source: active = GI50 up to about 1.1 µM and inactive = higher.
Assign a class; possible classes are 1.0 for active, 0.0 for inactive

Worked examples follow.
{"compound": "Nc1ncnc2c1ccn2CC=C(CO)CO", "label_class": 0.0}
{"compound": "CC(Cl)(CCC(Cl)C(C)(C)Cl)C(=O)CBr (stereo not given)", "label_class": 0.0}
{"compound": "OC(c1cccnc1Cl)c1nc2ccccc2c2ccnc(Cl)c12 (stereo not given)", "label_class": 1.0}
{"compound": "O=c1oc2ccc3ccccc3c2cc1-c1nc2ccc([N+](=O)[O-])cc2o1", "label_class": 0.0}

stdin: Hey, what did the test say about N#CC1(C#N)N[C@@H](c2ccsc2)[C@H]2C(=O)N(c3ccccc3)C(=O)[C@H]21 ?
stdout: 0.0

stdin: Could you please tell me the result logged for COC(=O)C1C(O)C(C)C(O)OC1C(C)C(O)C(C)/C=C\C=C(/C)C(=O)Nc1c(C)c(OC(C)=O)c2c(c1O)C(=O)C(C)=C1OCOC(/C(C)=C/C(C)=O)=C12 (stereo not given) in this assay?
stdout: 0.0

stdin: Please share the test call associated with CCC(=O)C(CCN1CCC2(CCCc3ccccc32)CC1)(c1ccccc1)c1ccccc1 .
stdout: 0.0

stdin: Fill in: this test's call for Cc1ccc2c(c1)C(=O)C1(C2)Cc2c(C)cccc2C1=O (stereo not given) is ___
stdout: 0.0

stdin: # outcome recorded in this test, key = O/N=C\c1c2c(cc3c1CCC3)CCC2
stdout: 0.0

stdin: Please share the test call associated with Nc1ncnc2c1ncn2[C@]1(CO)C=C(CO)C(O)C1O (stereo not given in full) .
stdout: 0.0
